- ASSAY REMARKS: bioavailability after oral administration (AUCpo/AUCiv), dogs
- Format: in vivo
- MEASUREMENT CONTEXT: dog, plasma, oral vs intravenous, dose-standardised AUCpo/AUCiv, read-out: Bioavailabilities

COMPOUND: Cc1cc(S(C)(=O)=O)c(S(C)(=O)=O)cc1C(=O)NC(=N)N.Cl.O [hydrochloride hydrate]
bioavailability: 88 to 99%

Source: patent US6673968B1
